Readings of relative viability for the listed molecules
test system: NCI-H1355; assay: relative viability (nuclei count vs DMSO), 5 days (fraction); higher = more cells survive; conditions: first compound 0.2 µM
Response field accepts a number only; no unit should be typed.

State its relative viability for this molecule: CCNC(=O)c1noc(-c2cc(C(C)C)c(O)cc2O)c1-c1ccc(CN2CCOCC2)cc1 [Luminespib] + C[C@@H](Oc1cc(-c2cnn(C3CCNCC3)c2)cnc1N)c1c(Cl)ccc(F)c1Cl [Crizotinib] (partner 1 µM)
1.08

State its relative viability for this molecule: CCNC(=O)c1noc(-c2cc(C(C)C)c(O)cc2O)c1-c1ccc(CN2CCOCC2)cc1 [Luminespib] + CC(=O)Nc1cccc(-n2c(=O)n(C3CC3)c(=O)c3c(Nc4ccc(I)cc4F)n(C)c(=O)c(C)c32)c1 [Trametinib] (partner 0.02 µM)
0.158

State its relative viability for this molecule: Cc1csc(=NC2CCCCC2)n1/N=C/c1ccc(O)c(O)c1O [MIM1] + COc1cccc2cc(-c3nc([C@H]4CC[C@H](C(=O)O)CC4)n4ncnc(N)c34)[nH]c12 [OSI-027] (partner 0.5 µM)
0.409

State its relative viability for this molecule: CCNC(=O)c1noc(-c2cc(C(C)C)c(O)cc2O)c1-c1ccc(CN2CCOCC2)cc1 [Luminespib] + CS(=O)(=O)CCNCc1ccc(-c2ccc3ncnc(Nc4ccc(OCc5cccc(F)c5)c(Cl)c4)c3c2)o1 [Lapatinib] (partner 2 µM)
0.153

* * *

test system: NCI-H1648; assay: relative viability (nuclei count vs DMSO), 5 days (fraction); higher = more cells survive; conditions: first compound 0.06325 µM
measured_quantity: relative viability
Response field accepts a number only; no unit should be typed.

Answered examples (3):
compound="CCNC(=O)c1noc(-c2cc(C(C)C)c(O)cc2O)c1-c1ccc(CN2CCOCC2)cc1 [Luminespib] + COc1cccc2cc(-c3nc([C@H]4CC[C@H](C(=O)O)CC4)n4ncnc(N)c34)[nH]c12 [OSI-027] (partner 0.5 µM)" subject_of_test=NCI-H1648 reported_value=0.366
compound="CCNC(=O)c1noc(-c2cc(C(C)C)c(O)cc2O)c1-c1ccc(CN2CCOCC2)cc1 [Luminespib] + CC(=O)Nc1cccc(-n2c(=O)n(C3CC3)c(=O)c3c(Nc4ccc(I)cc4F)n(C)c(=O)c(C)c32)c1 [Trametinib] (partner 0.02 µM)" subject_of_test=NCI-H1648 reported_value=0.407
compound="CCNC(=O)c1noc(-c2cc(C(C)C)c(O)cc2O)c1-c1ccc(CN2CCOCC2)cc1 [Luminespib] + Cc1cc(Nc2cc(N3CCN(C)CC3)nc(Sc3ccc(NC(=O)C4CC4)cc3)n2)n[nH]1 [Tozasertib] (partner 0.1 µM)" subject_of_test=NCI-H1648 reported_value=0.578

Turning now to a further compound:
State its relative viability for this compound: CCNC(=O)c1noc(-c2cc(C(C)C)c(O)cc2O)c1-c1ccc(CN2CCOCC2)cc1 [Luminespib] + Nc1nc2[nH]cc(CCc3ccc(C(=O)N[C@@H](CCC(=O)O)C(=O)O)cc3)c2c(=O)[nH]1 [Pemetrexed] (partner 0.2 µM)
0.749

* * *

Readings of relative viability for the listed molecules
tested on: NCI-H358; test: relative viability (nuclei count vs DMSO), 5 days (fraction); higher = more cells survive; conditions: first compound 0.2 µM
Response field accepts a number only; no unit should be typed.

molecule="Cc1csc(=NC2CCCCC2)n1/N=C/c1ccc(O)c(O)c1O [MIM1] + CC(=O)c1c(C)c2cnc(Nc3ccc(N4CCNCC4)cn3)nc2n(C2CCCC2)c1=O [Palbociclib] (partner 0.5 µM)" measured_quantity="relative viability" reported_value=0.145
molecule="CCNC(=O)c1noc(-c2cc(C(C)C)c(O)cc2O)c1-c1ccc(CN2CCOCC2)cc1 [Luminespib] + COc1cc2c(Oc3ccc(NC(=O)C4(C(=O)Nc5ccc(F)cc5)CC4)cc3F)ccnc2cc1OCCCN1CCOCC1 [Foretinib] (partner 0.25 µM)" measured_quantity="relative viability" reported_value=0.0569
molecule="Cc1csc(=NC2CCCCC2)n1/N=C/c1ccc(O)c(O)c1O [MIM1] + C[C@@H](Oc1cc(-c2cnn(C3CCNCC3)c2)cnc1N)c1c(Cl)ccc(F)c1Cl [Crizotinib] (partner 1 µM)" measured_quantity="relative viability" reported_value=0.572
molecule="CCNC(=O)c1noc(-c2cc(C(C)C)c(O)cc2O)c1-c1ccc(CN2CCOCC2)cc1 [Luminespib] + O=C(c1cc(Cc2n[nH]c(=O)c3ccccc23)ccc1F)N1CCN(C(=O)C2CC2)CC1 [Olaparib] (partner 8 µM)" measured_quantity="relative viability" reported_value=0.0712

Enter measured relative viability, system NCI-H358, for the molecule shown: CN1CCN(CCOc2cc(OC3CCOCC3)c3c(Nc4c(Cl)ccc5c4OCO5)ncnc3c2)CC1 [Saracatinib] + NC(=O)Nc1cc(-c2cccc(F)c2)sc1C(=O)N[C@H]1CCCNC1 [AZD7762] (partner 0.2 µM)
0.418
